Measured values drawn from PubChem BioAssay (NCI) for this set.

# System: NCI-H460 lung
# protocol: NCI-60 one-dose screen, 48 h (100 = growth as untreated, 0 = no growth, -100 = all killed)
# stated.conditions: 10 µM unless noted
Compounds without any hit were thinned out: in the full panel of roughly 83,000, 20% have a hit.
Kindly supply the reported growth values for the records listed here.
Answers are plain numbers, in %.

- OCCN1CCN(c2cc(-c3cccc(OC(F)(F)F)c3)nc3ccc(N4CCCC4)cc23)CC1: 11.3

Hello, I would appreciate it if you could give growth for each entry below.
1. CCOC(=O)c1ccc(Nc2ncnc3c2cnn3-c2cccc(F)c2)cc1
2. COc1cc(-c2nc(SCCC(C)C)nc(Nc3ccc(F)cc3)c2C#N)cc(OC)c1OC
3. COc1ccc(/C(C)=C(\c2ccc(OCCN3CCCCCC3)cc2)c2ccc(OC(=O)C3CCCCC3)cc2)cc1

1: 102; 2: 21.4; 3: -65.6

Hey, can you go through the list below and give me growth for every item?
1. COc1ccc(-c2c[nH]c(C(=O)O)c2-c2cc(OC)c(OC)c(OC)c2)cc1
2. COc1ccc(/C=C(\C#N)c2cc3ccccc3[nH]2)cc1
3. COC1=CC(c2ccc[nH]2)=N/C1=C\c1[nH]c(C)c(C(=O)Oc2ccccc2)c1C
4. Cc1ccc(NC(=O)N/C(N)=N/c2nc(=O)c3ccccc3s2)cc1
5. O=C(NCc1cccnc1)/C(=C\c1ccc(Br)cc1)S(=O)(=O)c1ccccc1
6. CN(C)C1CCN(C(=O)c2ccc(NC(=O)Nc3ccc(-c4nc(N5CCOCC5)c5cccn5n4)cc3)cc2)CC1

1. 14.4
2. 12.7
3. -31.2
4. 88.8
5. -30.5
6. 6.48
